- Test system: GST-CAP1 (a protein having PDZ domain)
- procedure text: Peptide capture on streptavidin-agarose beads in filter plate, tryptic digestion, MALDI MS detection of bound GST-CAP1
- assay context: sample GST-CAP1; m/z as printed in cell above (1358.8 or 1152.6); signal size of about 1000 or more indicates significant binding
No end group written: not given here. *: point of attachment. Biotin = O=C1N[C@H]2[C@H](CS[C@H]2CCCCC(=O)*)N1
recorded endpoint: signal size (number in brackets) of MALDI MS signal
API doc: respond with a numeric literal and nothing else, no unit.

Recorded results for 2 substances are shown here.
>>> df
                                substance  endpoint_value
0  Biotin-PPGMRPPPPGMRRGPPPPGMRPPRP [SmB]               0
1            Biotin-SGSGGTPPPPYTVG [WBP1]               0

Alright, here's another substance for you.
signal size (number in brackets) of MALDI MS signal reading for Biotin-SGSGVLIKRRST*EL-COOH [COXG] : 0

These data points were gathered from patent US20050178959A1.
